experiment: RCMB18 cell growth, single agent and combined, cisplatin and BGB IC40 combos (AID 1671462); settings: RCMB18 medulloblastoma cells, measured here: BGB IC40 combination, at 0.05 µM, stronger effect = higher value;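 note: cells exposed to compound for four days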
ASSAY_METRIC: inhibition (%)
// units = %; emit number, no label

Worked examples follow.
MOLECULAR_STRING: O=C(CCCCCCNC(=O)c1cnc(N(c2ccccc2)c2ccccc2Cl)nc1)NO
RESULT_UNITS: %
READOUT_VALUE: -4.49
--
MOLECULAR_STRING: Cc1cn([C@@H]2O[C@H](CO)[C@@H](O)[C@@H]2F)c(=O)[nH]c1=O
RESULT_UNITS: %
READOUT_VALUE: -13.9
--
MOLECULAR_STRING: O=C(/C=C/c1ccc(CN(CCO)CCc2c[nH]c3ccccc23)cc1)NO
RESULT_UNITS: %
READOUT_VALUE: 6.39

Fill blank: measured inhibition of the compound `Nc1ncnc2c1c(-c1cnc3[nH]ccc3c1)nn2C1CCCC1` is ____. -7.03

Can you handle `CC(=O)Nc1nc(C)c(-c2ccc(Cl)c(S(=O)(=O)NCCO)c2)s1` next? -25

These entries and their values trace back to PubChem BioAssay.
